Each recorded value in this set is attributed to ChEMBL document CHEMBL1141073.

Each entry below carries its reported inhibition.
Molecular target: 17-beta-hydroxysteroid dehydrogenase type 1 (Homo sapiens)
Sequence (whole entry): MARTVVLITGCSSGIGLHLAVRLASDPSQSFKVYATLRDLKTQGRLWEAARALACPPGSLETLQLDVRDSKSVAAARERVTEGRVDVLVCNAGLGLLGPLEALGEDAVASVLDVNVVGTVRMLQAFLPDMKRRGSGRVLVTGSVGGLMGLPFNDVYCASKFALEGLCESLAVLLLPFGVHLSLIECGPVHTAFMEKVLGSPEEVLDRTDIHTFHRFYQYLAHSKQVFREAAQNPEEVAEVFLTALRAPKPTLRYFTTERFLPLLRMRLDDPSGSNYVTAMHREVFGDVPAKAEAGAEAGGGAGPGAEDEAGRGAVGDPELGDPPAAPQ
Experiment: Inhibitory activity at 10 uM against 17-beta-hydroxysteroid dehydrogenase type 1 expressed in T47D human breast cancer cells using 2 nM [3H]estrone
Type: cell-based
I only need the number, in %, no unit after it.

Example cases with answers are listed next.
{"columns": ["compound", "target.or.system", "inhibition / %"],
 "data": [
  ["C[C@]12CCC3c4ccc(O)cc4CCC3C1Cc1cn(CCC#N)nc12 (some centres undefined)", "17-beta-hydroxysteroid dehydrogenase type 1 (Homo sapiens)", 95],
  ["COC(=O)Cn1cc2c(n1)[C@@]1(C)CCC3c4ccc(O)cc4CCC3C1C2 (some centres undefined)", "17-beta-hydroxysteroid dehydrogenase type 1 (Homo sapiens)", 95],
  ["C[C@]12CCC3c4ccc(O)cc4CCC3C1Cc1c2n[nH]c1C(=O)O (some centres undefined)", "17-beta-hydroxysteroid dehydrogenase type 1 (Homo sapiens)", 32]
]}

Lookup: Give the measured inhibition of C[C@]12CCC3c4ccc(O)cc4CCC3C1CC(C(=O)C(F)(F)F)=C2O (some centres undefined) .
Found: 78

Lookup: Using the record for CC(C)Cn1cc2c(n1)[C@@]1(C)CCC3c4ccc(O)cc4CCC3C1C2 (some centres undefined) , report its inhibition.
Found: 77

Lookup: Using the record for C[C@]12CCC3c4ccc(O)cc4CCC3C1CC(C=O)=C2O (some centres undefined) , report its inhibition.
Found: 97

Lookup: Name the recorded inhibition for CCN(C)C(=O)c1[nH]nc2c1CC1C3CCc4cc(O)ccc4C3CC[C@]21C (some centres undefined) .
Found: 88

Lookup: Using the record for C[C@]12CCC3c4ccc(O)cc4CCC3C1Cc1c2n[nH]c1C(=O)NCCc1cccnc1 (some centres undefined) , report its inhibition.
Found: 99

Lookup: Quick check: inhibition of C[C@]12CC[C@@H]3c4ccc(O)cc4CCC3[C@@H]1CC(=N/O)/C2=N\O (single isomer, unassigned) ?
Found: 55

Lookup: Fill in: inhibition of Cn1cccc1CNC(=O)c1[nH]nc2c1CC1C3CCc4cc(O)ccc4C3CC[C@]21C (some centres undefined) is ___
Found: 89

====

target: 17-beta-hydroxysteroid dehydrogenase type 2 (Homo sapiens) (UniProt P37059); assay: Inhibitory activity at 10 uM against 17-beta-hydroxysteroid dehydrogenase type 2 in MDAMB-231 human breast cancer cells using 2 nM [3H]estradiol; format: cell-based; conditions: Cancer cell lines
Sequence (P37059 whole entry): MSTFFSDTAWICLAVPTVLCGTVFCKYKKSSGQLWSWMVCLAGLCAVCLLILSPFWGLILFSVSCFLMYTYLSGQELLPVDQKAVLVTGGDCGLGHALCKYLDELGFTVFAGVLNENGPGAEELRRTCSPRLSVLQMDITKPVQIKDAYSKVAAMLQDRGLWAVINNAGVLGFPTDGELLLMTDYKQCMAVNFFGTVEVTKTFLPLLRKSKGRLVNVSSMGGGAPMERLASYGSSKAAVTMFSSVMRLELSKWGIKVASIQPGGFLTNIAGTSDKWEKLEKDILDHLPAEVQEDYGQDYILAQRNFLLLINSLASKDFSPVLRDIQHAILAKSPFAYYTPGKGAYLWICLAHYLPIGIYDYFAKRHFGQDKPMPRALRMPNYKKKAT
Binary classification by inhibition, with 6% as an inclusive lower bound for rule met; all other cases are rule not met.

Lookup: Is inhibition for COC(=O)Cn1ncc2c1[C@@]1(C)CCC3c4ccc(O)cc4CCC3C1C2 (stereo not given in full) at or above 6%?
Found: rule met

Lookup: Dear colleague, could you confirm whether C[C@]12CCC3c4ccc(O)cc4CCC3C1CC(C(=O)C(F)(F)F)=C2O (stereo not given in full) has inhibition at or above 6%?
Found: rule not met

Lookup: Please indicate if the recorded inhibition for CN1CCN(CNC(=O)c2[nH]nc3c2CC2C4CCc5cc(O)ccc5C4CC[C@]32C)CC1 (stereo not given in full) meets or exceeds 6%.
Found: rule not met

Lookup: Would you say C[C@]12CCC3c4ccc(O)cc4CCC3C1Cc1c2n[nH]c1C(=O)NCc1cccnc1 (stereo not given in full) shows inhibition at minimum 6%?
Found: rule met

Lookup: Is it the case that COC(=O)Cn1cc2c(n1)[C@@]1(C)CCC3c4ccc(O)cc4CCC3C1C2 (stereo not given in full) has inhibition reaching or exceeding 6%?
Found: rule met

Lookup: Determine whether measured inhibition meets or exceeds 6% for C[C@]12CCC3c4ccc(O)cc4CCC3C1Cc1c[nH]nc12 (stereo not given in full)
Found: rule met

Lookup: Given C[C@]12CCC3c4ccc(O)cc4CCC3C1Cc1c2n[nH]c1C(=O)NCCc1cccnc1 (stereo not given in full) , state whether its inhibition is at least 6%.
Found: rule not met

Lookup: Decide: is the reported value of inhibition for C[C@]12CCC3c4ccc(O)cc4CCC3C1Cc1cccnc12 (stereo not given in full) equal to or greater than 6%?
Found: rule met
